// values below are reported TGI
test system: MDA-MB-231 breast; test: NCI tumour cell line growth inhibition, 48 h
Field: numeric (µM). Do not append units.

Illustrative cases are given below, each with its answer.
N=C(N)SC1c2ccccc2-c2cc([N+](=O)[O-])ccc21 (stereo not given)	23.6
C=C(Cl)C(Br)(CCl)CCC(Cl)C(C)C (stereo not given) (tested in a mixture with another compound)	2.49

Q) I am curious: what TGI value has been reported for Cc1cc2cc(Oc3ccnc(Nc4cccc(CS(=O)(=O)NCCN(C)C)c4)n3)ccc2[nH]1 ?
A) 17.2

* * *

test system: SK-OV-3 ovarian; assay: NCI tumour cell line growth inhibition, 48 h
compounds and their reported TGI
Express the result in µM but write the number alone.

Past entries and their recorded results:
NC(=O)c1nnc2cc(F)c(F)cc2c1N	82.4
O=C(N/N=C/c1cc(Br)cc(Br)c1[O-])c1ccccc1O.O=C(N/N=C/c1cc(Br)cc(Br)c1[O-])c1ccccc1O.[Cl-].[Fe+3]	7.22
CCCCC/C=C1\CCC(CN2CCOCC2)C1=O (stereo not given)	35.3
COC(=O)c1ccc(NCc2cc(O)c3ccccc3c2O)cc1	31.6

Here is another compound to look at.
Q) Entry C[C@]1(O)CC(=O)[C@]2(O)C3=C(C=C[C@]2(O)C1)C(=O)c1c(O)cccc1C3=O has what TGI?
A) 42

* * *

system: K-562 leukemia; assay: NCI tumour cell line growth inhibition, 48 h
TGI overview

Q) Which TGI is reported for this compound? CC[O+]=c1cccc2ssnc1-2
A) > 100 µM

Q) Entry CCC1N2CCCCC2[C@@H]2c3[nH]c4ccccc4c3CCN12 (stereo partly specified) has what TGI?
A) > 100 µM

Q) I would be grateful if you could share the reported TGI for O=c1c2ccccc2c(C=NCCNCCO)c2oc3ccccc3n12 .
A) 16.4 µM

Q) Dear colleague, I am looking for the recorded TGI of the following compound: NC(CCc1nc(-c2ccccc2)cs1)C(=O)O (stereo unspecified)
A) > 100 µM

Q) Please report the recorded TGI for CN1CCN(c2ccc(NC3=C(Cl)C(=O)c4ncccc4C3=O)cc2C(F)(F)F)CC1 .
A) > 100 µM

Q) Entry O=C(Cc1ccccc1)NN1C(=O)C(Cl)C1c1cc(Br)cc(Br)c1O (stereo unspecified) : reported TGI = ?
A) 34.1 µM

* * *

system: SK-OV-3 ovarian; test: NCI tumour cell line growth inhibition, 48 h; in the data active = GI50 below about 0.43 µM; inactive = the rest
Please answer using one outcome listed in active, inactive

Use these answered entries as a reference point.
COc1cc(/C=C\c2cc(/C=C\c3ccc(O)c(OC)c3)n(C(=O)Nc3ccc(C(F)(F)F)cc3)n2)ccc1O	inactive
CC(C)(C)OC(=O)N(CCCn1c2c(c3ccccc3c1=O)C(=O)c1ccccc1-2)CCN(CCCn1c2c(c3ccccc3c1=O)C(=O)c1ccccc1-2)C(=O)OC(C)(C)C	inactive
N#C/C(=C/c1cccs1)c1cccs1	inactive
COc1cccc2c1C(=O)c1c(O)c3c(c(O)c1C2=O)C[C@@](O)(C(=O)COC(=O)c1cccnc1)C[C@@H]3OC1CC(N)C(O)C(C)O1 (stereo partly drawn)	active
COc1cc2c(cc1O)CCN[C@@]21CS[C@H]2c3c(OC(C)=O)c(C)c4c(c3C(COC1=O)N1C2C2c3c(cc(C)c(OC)c3O)CC([C@@H]1O)N2C)OCO4 (stereo partly drawn)	active

Q) Outcome? Cc1cc(C)c(S(=O)(=O)Oc2ccccc2[N+](=O)[O-])c(C)c1
A) inactive

Q) What was the test verdict on CNC1=C(Br)C(=O)C2=C(C1=O)C1C3=C(C(=O)C=CC3=O)C2c2ccccc21 (stereo not drawn) ?
A) inactive

Q) Outcome logged for CC(=O)O[C@H]1CC[C@]2(C)[C@H]3C(=O)C=C4[C@@H]5C[C@](C)(C(=O)N6CCCNCC6)CC[C@]5(C)CC[C@@]4(C)[C@]3(C)CC[C@H]2C1(C)C in this assay:
A) inactive

Q) Per the records of this test, what outcome belongs to COc1ccc(/C=C2/CCOC2=O)cc1 ?
A) inactive

Q) For CC(C)(C)c1ccc(NC(=O)c2cc(=O)c3ccccc3[nH]2)c(C(C)(C)C)c1O , what call appears in the results of this test?
A) inactive

Q) Entry C=C(C)[C@@H]1CC[C@]2(C)[C@H](CC=C3[C@@H]4CC(C)(C)CC[C@]4(C(=O)OC)CC[C@]32C)[C@@]1(C)CC/C(N)=N/O : call = ?
A) inactive

Q) Hello, I am checking results. What call was entered for Cc1ccc(NCCN(C)CC(C)O)c2c(=O)c3ccc(Cl)cc3sc12 (stereo not drawn) ?
A) inactive

Q) What call does the record list for CN([N-]C(=O)CC(=O)[N-]N(C)C(=S)c1ccccc1)C(=S)c1ccccc1.[Cu+2] ?
A) active
